TARGET_ENTITY: progesterone receptor-LBD (Homo sapiens, UniProt P06401)
Construct: host or cells: HEK 293T (progesterone receptor-LBD-UAS-bla)
Sequence (P06401 679-913 limits assumed): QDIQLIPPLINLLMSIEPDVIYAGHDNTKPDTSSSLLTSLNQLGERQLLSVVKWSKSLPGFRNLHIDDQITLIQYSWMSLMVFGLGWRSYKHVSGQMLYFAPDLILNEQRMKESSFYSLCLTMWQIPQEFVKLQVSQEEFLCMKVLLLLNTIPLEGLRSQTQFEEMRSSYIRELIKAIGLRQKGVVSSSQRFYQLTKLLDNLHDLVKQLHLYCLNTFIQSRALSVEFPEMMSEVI
ASSAY_NAME: Progesterone Antagonist Screen, activated by control agonist R5020 (GENEBLAZER beta-lactamase reporter)
Assay type: cell-based
PARTICULARS: progesterone receptor-LBD-UAS-bla HEK 293T cells; control agonist R5020 at EC80; read-out: Progesterone Antagonist Inhibition IC50
For each of the compounds below, state its IC50.

The measured IC50 associated with C=C(C)c1ccc(C2CC3(C)C(CCC34OCCC4=C(F)F)C3CCC4=CC(=O)CCC4=C23)cc1 (stereo not shown) reads 0.413 nM

Reported IC50 of CC12CC(c3ccc(-c4ccoc4)cc3)C3=C4CCC(=O)C=C4CCC3C1CCC21OCCC1=C(F)F (stereo not shown) : 0.864 nM

Lookup result for CC12CC(c3ccc(-c4cccnc4)cc3)C3=C4CCC(=O)C=C4CCC3C1CCC21OCCC1=C(F)F (stereo not shown) ; measured IC50: 0.28 nM

CC(=O)c1ccc(C2CC3(C)C(CCC34OCCC4=C(F)F)C3CCC4=CC(=O)CCC4=C23)cc1 (stereo not shown) yielded IC50 of 0.265 nM

Noted for CN(C)c1ccc(C2CC3(C)C(CCC34OCCC4=C(F)F)C3CCC4=CC(=O)CCC4=C23)cc1 (stereo not shown) : its IC50 reads 0.178 nM

Input COc1ccc(C2CC3(C)C(CCC34OCCC4=C(F)F)C3CCC4=CC(=O)CCC4=C23)cc1 (stereo not shown) . Output IC50: 0.344 nM

According to the records, this compound CC(=O)c1ccc([C@H]2C[C@@]3(C)[C@@H](CC[C@@]3(O)C(F)(F)C(F)(F)F)[C@@H]3CCC4=CC(=O)CCC4=C32)cc1 [ZK 230211, Lonaprisan, reference compound] displays IC50 of 0.798 nM

----------
TARGET_ENTITY: progesterone receptor-LBD (Homo sapiens, UniProt P06401)
Construct: host or cells: HEK 293T (progesterone receptor-LBD-UAS-bla)
ASSAY_NAME: Progesterone Agonist screen (SELECTSCREEN GENEBLAZER beta-lactamase reporter)
Type: cell-based
PARTICULARS: progesterone receptor-LBD-UAS-bla HEK 293T cells; read-out: Progesterone Agonist Activation IC50
pIC50: −log10 of the molar value.
Record form. Attribute: pIC50. Fill in for each entry.

// CC(=O)c1ccc([C@H]2C[C@@]3(C)[C@@H](CC[C@@]3(O)C(F)(F)C(F)(F)F)[C@@H]3CCC4=CC(=O)CCC4=C32)cc1 [ZK 230211, Lonaprisan, reference compound] : pIC50 value = < 8.00

Record CC(=O)c1ccc(C2CC3(C)C(CCC34OCCC4=C(F)F)C3CCC4=CC(=O)CCC4=C23)cc1 (centres unmarked) [Compound 1a] , field pIC50: < 8.00
